meta.source: the supplement of paper PMC7877785

- method.notes: self-splicing fitness, log relative to wild type (ln ratio); higher = more splicing; Tetrahymena group I intron in knt gene, E. coli kanamycin selection, DiMSum; sequences stand for … in CUCUCU…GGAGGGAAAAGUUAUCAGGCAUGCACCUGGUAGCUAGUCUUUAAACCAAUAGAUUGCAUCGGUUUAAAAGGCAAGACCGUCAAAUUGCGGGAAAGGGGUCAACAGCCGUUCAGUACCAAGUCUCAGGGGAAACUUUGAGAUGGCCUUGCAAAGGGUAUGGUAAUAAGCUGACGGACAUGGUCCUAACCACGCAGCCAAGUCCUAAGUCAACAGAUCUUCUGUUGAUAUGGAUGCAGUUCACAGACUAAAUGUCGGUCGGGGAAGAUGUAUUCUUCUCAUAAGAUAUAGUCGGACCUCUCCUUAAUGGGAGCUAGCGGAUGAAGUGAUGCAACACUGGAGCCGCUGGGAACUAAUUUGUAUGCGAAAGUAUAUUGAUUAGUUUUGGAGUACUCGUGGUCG;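 also: selection with 25 µg/mL kanamycin versus none on LB agar overnight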
- particulars: 37 °C
So I've got a bunch of sequences here, and I need their self-splicing fitness (ln) values.
Answers are plain numbers.

Example results:
- GUGCAGCAAUAUUACGAGGC: -2.43
- AACUAGCAAUAUUACGCCCA: 0.0227
- AUGCAGCAAUAUUACGAGUC: -2.32
- GGCAAGCAAUAUUACGGCAU: 0.531
- GAUCAGCAAUAUUACGCAUG: 0.865
- ACCCAGCAAUAUUACGUGUG: -1.07
- GACAAGCAAUAUUACGGUAA: -0.907
- UAUGAGCAAUAUUACGGUCA: -1.65
- CACCAGCAAUAUUACGCGUU: -0.539
- UAAGAGCAAUAUUACGUAGA: -1.34

Each sequence below has a recorded value; state its self-splicing fitness (ln).
1. CACGAGCAAUAUUACGCGAA
2. AAGGAGCAAUAUUACGUCGU
3. GUGAAGCAAUAUUACGAGCU
4. AGGAAGCAAUAUUACGGAGU
5. UUGGAGCAAUAUUACGAGUC
6. GCUUAGCAAUAUUACGAAAA

[-2.1, -0.982, -1.19, -1.7, -3.03, -1.12]
